The reported measurements were obtained from paper PMC7995829.

ASSAY_TARGET: BglX (Pseudomonas aeruginosa, UniProt Q9I311)
MEASUREMENT_NOTES: inhibition assay
Type: biochemical
MEASUREMENT_PARAMETERS: nonsubstrate, weak inhibitor
MEASUREMENT_TYPE: Ki

# COMPOUND, ASSAY_TARGET, MEASUREMENT_TYPE, ENDPOINT_RESULT
measured = [
    ("OC[C@H]1O[C@@H](O[C@H]2[C@H](O)[C@@H](O)C(O)O[C@@H]2CO)[C@H](O)[C@@H](O)[C@H]1O (stereo partly drawn)", "BglX (Pseudomonas aeruginosa, UniProt Q9I311)", "Ki", "> 50 mM"),
    ("OC[C@H]1O[C@@H](O[C@H]2[C@H](O)[C@@H](O)C(O)O[C@@H]2CO)[C@H](O)[C@@H](O)[C@@H]1O (stereo partly drawn)", "BglX (Pseudomonas aeruginosa, UniProt Q9I311)", "Ki", "> 50 mM"),
    ("OC1OC[C@@H](O[C@@H]2OC[C@@H](O[C@@H]3OC[C@@H](O)[C@H](O)[C@H]3O)[C@H](O)[C@H]2O)[C@H](O)[C@H]1O (stereo partly drawn)", "BglX (Pseudomonas aeruginosa, UniProt Q9I311)", "Ki", "> 50 mM"),
]

----------
ASSAY_TARGET: BglX (Pseudomonas aeruginosa)
MEASUREMENT_NOTES: inhibition assay
Type: biochemical
MEASUREMENT_TYPE: Ki (mM)

# COMPOUND, ASSAY_TARGET, UNITS_TEXT, ENDPOINT_RESULT
measured = [
    ("OC[C@H]1NC[C@H](O)[C@@H](O)[C@@H]1O [NOJ, 1-deoxynojirimycin]", "BglX (Pseudomonas aeruginosa)", "mM", 4.4),
]
